method.description: Cellular Toxicity (caspase-3) BJ (AID 658);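 note: cells exposed to compound for 16 hours; 0% = DMSO basal and 100% = 10 µM staurosporine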
stated.conditions: BJ fibroblasts, luminescence; caspase-3 activation; series mostly up to 91.7 µM
The source made the active and inactive calls. Calls come from the whole dose curve; as a rule, active = well fitted curve in the direction sought with a large enough effect; inconclusive = small, poorly fitted or top-dose-only effect, or another doubt; inactive = no such curve, though single readings can be large or run the other way.
Your reply should match one of these outcome classes. active, inactive

// below: answered compounds
* C=CC(C)(O)CCCC(C)CCCC(C)CCCC(C)C (stereo unspecified) | inactive
* Cc1ccc(O)c(N)c1 | inactive
* COc1ccc([N+](=O)[O-])cc1N | inactive
* CCNC(=S)NCC | inactive
* Cc1cc(=O)oc2cc(O)cc(O)c12 | inactive
* Brc1ccc(-c2ccccc2)cc1 | inactive

Proceed to the following item.
query: Returns: the outcome recorded for c1ccc2ncccc2c1 in this assay.
result: inactive

====

Test system: CP237
method.description: qHTS profiling for inhibitors of Plasmodium falciparum proliferation (AID 504749); note: nearly all actives have a fitted effect of over 60% in size
stated.conditions: P. falciparum in erythrocytes, SYBR Green DNA, 72 h; series mostly up to 28.7 µM
Inconclusive results are not listed. Calls of active or inactive are those of the source. The call rests on the fitted dose curve; in most records, active means well fitted inhibition curve with a large enough effect; inconclusive means small, poorly fitted or top-dose-only effect; inactive means flat fitted curve, though single readings scatter.
Parameter call: string, one of T = active, F = inactive

• CN1[C@@H]2CC(OC(=O)[C@@H](CO)c3ccccc3)C[C@@H]1[C@H]1O[C@H]12 (stereo partly drawn) = F
• CC(C)(C)NC[C@@H](O)c1ccc(O)c(CO)n1 = F
• CO/N=C(\C(=O)N[C@@H]1C(=O)N2C(C(=O)[O-])=C(C[N+]3(C)CCCC3)CS[C@@H]12)c1csc(N)n1 = F
• N[C@@H](Cc1ccccc1)C(=O)O = F

query: Hi, do you know how N[C@H](COP(=O)(O)O)C(=O)O came out in this test?
result: F

query: Same for C[C@]12CC[C@H]3c4ccc(O)cc4CC[C@@H]3[C@H]1CC[C@@H]2OC(=O)CCC1CCCC1
result: T

query: What do you have for Cc1cn([C@H]2C[C@H](N=[N+]=[N-])[C@H](CO)O2)c(=O)[nH]c1=O ?
result: F

query: Queued: C[C@H](CCC(=O)O)[C@H]1CC[C@@H]2[C@H]3[C@@H](C[C@@H](O)[C@]21C)[C@]1(C)CC[C@H](O)C[C@@H]1C[C@@H]3O
result: F

====

// activity change, negative = inhibition lookup, one value per entry
method.description: AP1 Signaling Pathway (AID 357);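 note: ME-180 reporter cells stimulated with EGF at its EC50 level; % is set by controls: 0 for no effect and ±100 for the full control effect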
stated.conditions: ME-180 (cervical carcinoma) AP-1-bla reporter, EGF-induced, beta-lactamase ratio, 5 h; at 7.69 µM (top of the series) unless noted
Results filed as inconclusive are left out. The source made the active and inactive calls. Calls come from the whole dose curve; as a rule, active = well fitted curve in either direction with a large enough effect (not every such curve was filed as active); inconclusive = small, poorly fitted or top-dose-only effect, or another doubt; inactive = flat fitted curve, though single readings scatter.

• NC(N)=NC(N)=Nc1ccc(C(=O)O)cc1 = 7% (inactive)
• C/C(=N\O)c1cccc[n+]1Cc1ccccc1 = -1.8% (inactive)
• O[C@H](C[C@@H]1CCCCN1)c1ccc2c(c1)oc1ccccc12 = 6.24% (inactive)
• CCn1c(CCCc2nc3c([nH]2)c(=O)n(C)c(=O)n3C)nc2c1c(=O)n(C)c(=O)n2C = -3.01% (inactive)
• N#CC[N+]1(Cc2ccccn2)CCCC1 = -12.2% (inactive)
• COCCn1c(=O)cnc2cnc(N3CCNCC3)nc21 = -9.65% (inactive)
• NC(N)=NCCSSCCN=C(N)N = -8.04% [at 38 µM] (inactive)
• c1cncc(CNCc2cccnc2)c1 = -1.94% (inactive)

query: Consider the molecule shown here: CN(C)Cc1cc(C(=O)O)cc(CN(C)C)c1O What is its recorded activity change, negative = inhibition?
result: 4.91% (inactive)

query: Quick one: N#CCCn1c(=O)c(CCc2ccccc2)nc2cnc(Oc3ccccc3)nc21
result: -21% (inactive)

====

method.description: qHTS Assay for Inhibitors of Fructose-1,6-bisphosphate Aldolase from Giardia Lamblia: Mammalian cellular toxicity (AID 2786);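 note: compound exposure lasted 48 h before reading; % is set by controls: 0 for no effect and ±100 for the full control effect; nearly all actives have a fitted effect of over 60% in size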
stated.conditions: mammalian cell viability counter-screen; series mostly up to 57.5 µM
Source text: NIH Chemical Genomics Center [NCGC] NIH Molecular Libraries Probe Production centers Network [MLPCN] Assay Provider: Osnat Herzberg, University of Maryland The objective of this project is to obtain compounds that inhibit Giardia lamblia growth. G. lamblia is a human pathogen which afflicts impoverished nations; it is the most common cause of outbreaks of diarrhea in the United States. […]
This is one part of the list. Inconclusive results are not listed. Active and inactive are the calls of the source. The call rests on the fitted dose curve; in most records, active means well fitted inhibition curve with a large enough effect; inconclusive means small, poorly fitted or top-dose-only effect; inactive means flat fitted curve, though single readings scatter.
# valid calls are active, inactive; nothing else

Previously resolved entries follow.
* Cn1c(=O)[nH]c(=O)c2c1[nH]c(=S)n2Cc1ccccc1 | inactive
* O=[N+]([O-])c1cc([N+](=O)[O-])c2cccnc2c1O | inactive
* CC(=O)NC1CCN(CC(=O)Nc2nccs2)CC1 | inactive

query: Query: recorded result category for O=C(NC(=S)Nc1ncccn1)c1ccccc1Br in this test
result: inactive

====

Test system: CP237
method.description: qHTS profiling for inhibitors of Plasmodium falciparum proliferation (AID 504749); note: nearly all actives have a fitted effect of over 60% in size
stated.conditions: P. falciparum in erythrocytes, SYBR Green DNA, 72 h; series mostly up to 28.7 µM
Inconclusive results are not listed. Calls of active or inactive are those of the source. Calls follow the shape of the dose curve; as a rule, active = well fitted inhibition curve with a large enough effect; inconclusive = small, poorly fitted or top-dose-only effect; inactive = flat fitted curve, though single readings scatter.
# output must be one of t = active, f = inactive

Solved entries (count: 3):
• C(=C/c1ccccc1)/CN1CCN(C(c2ccccc2)c2ccccc2)CC1 = t
• CC1(C)[C@@H]2CC[C@]1(C)[C@@H](OC(=O)CSC#N)C2 = f
• COc1cc2nc(N(C)CCCNC(=O)[C@@H]3CCCO3)nc(N)c2cc1OC = f

query: I'd appreciate the recorded outcome for CC(C)(C)c1ccc(CN2CCN([C@H](c3ccccc3)c3ccc(Cl)cc3)CC2)cc1 from this test.
result: t

query: Quick one: Cc1onc(-c2c(F)cccc2Cl)c1C(=O)N[C@@H]1C(=O)N2[C@H]1SC(C)(C)[C@H]2C(=O)O
result: f

====

assayed.target: Glucocorticoid receptor (Homo sapiens) (UniProt P04150)
Sequence (P04150 whole entry, looked up): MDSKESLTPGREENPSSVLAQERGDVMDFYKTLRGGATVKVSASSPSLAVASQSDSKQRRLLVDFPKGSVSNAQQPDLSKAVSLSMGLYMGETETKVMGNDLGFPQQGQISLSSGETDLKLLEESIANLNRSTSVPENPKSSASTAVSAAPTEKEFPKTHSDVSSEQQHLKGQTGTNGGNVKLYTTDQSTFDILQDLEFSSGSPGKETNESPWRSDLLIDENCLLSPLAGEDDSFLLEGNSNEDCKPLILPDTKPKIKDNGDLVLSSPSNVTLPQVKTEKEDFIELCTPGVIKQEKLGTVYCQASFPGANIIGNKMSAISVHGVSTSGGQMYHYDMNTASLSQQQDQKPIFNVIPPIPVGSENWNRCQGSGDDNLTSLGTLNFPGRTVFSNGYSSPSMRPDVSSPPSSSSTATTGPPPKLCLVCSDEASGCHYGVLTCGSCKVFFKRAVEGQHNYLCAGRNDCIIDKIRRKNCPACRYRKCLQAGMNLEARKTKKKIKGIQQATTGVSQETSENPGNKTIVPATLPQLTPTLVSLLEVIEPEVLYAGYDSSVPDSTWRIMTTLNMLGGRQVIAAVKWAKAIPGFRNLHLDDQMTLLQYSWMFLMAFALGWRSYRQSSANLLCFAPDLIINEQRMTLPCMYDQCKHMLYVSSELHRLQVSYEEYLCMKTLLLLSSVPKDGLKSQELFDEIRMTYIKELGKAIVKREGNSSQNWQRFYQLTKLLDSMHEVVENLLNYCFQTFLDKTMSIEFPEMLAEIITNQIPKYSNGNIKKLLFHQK
method.description: GR-EFC Redistribution (AID 451); note: potency is the fitted concentration of half-maximal effect
stated.conditions: CHO-K1 GR-EFC translocation, beta-gal luminescence, 2 h
Active and inactive are the calls of the source. The call rests on the fitted dose curve.
Thanks in advance; please answer with one of these: Y (active), N (inactive)

query: I'd appreciate the recorded outcome for c1ccc(-c2cnc(-c3ccc(-c4ncc(-c5ccccc5)o4)cc3)o2)cc1 from this test.
result: N

query: Same again, this time with CC(=O)[C@]1(O)CC[C@@H]2[C@H]3C[C@@H](C)C4=CC(=O)CC[C@@]4(C)[C@H]3[C@@H](O)C[C@]21C
result: Y

query: Query Oc1c(C(O)(c2ccccc2)c2ccc3ccccc3c2O)ccc2ccccc12 next
result: N

query: Next compound: CN(C)c1ccc(N=Nc2cccc3ccoc23)cc1
result: N

query: Would you mind doing O=C(O)/C=C\C(=O)Nc1ncn[nH]1 as well?
result: N

====

assayed.target: Glucocorticoid receptor (Homo sapiens)
method.description: GR-GFP Redistribution (AID 450); note: potency is the fitted concentration of half-maximal effect
stated.conditions: U2OS GR-GFP nuclear translocation, laser cytometry, 2 h
Active and inactive are the calls of the source.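 Rule for the calls: active = compounds whose dose series gives a full or clear partial fitted curve of increased nuclear translocation; inconclusive = weak partial curve or effect only at the top dose; inactive = no dose-dependent translocation response.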
measure.name: Potency

Consider the reported Potency for these compounds:
- Nc1nc2c(ncn2[C@@H]2C=C[C@@H](CO)C2)c(=O)[nH]1: > 46 µM (inactive)
- O=C(O)CCC(=O)c1ccc(Cl)cc1: > 46 µM (inactive)
- N#CC(C#N)=NNc1ccc2cn[nH]c2c1: > 46 µM (inactive)
- O=C1c2ccccc2C(=O)c2c(Nc3cc4c5c(ccc6c7ccc8c9c(cc(Nc%10cccc%11c%10C(=O)c%10ccccc%10C%11=O)c(c3c56)c97)-c3ccccc3C8=O)C(=O)c3ccccc3-4)cccc21: > 46 µM (inactive)
- N[C@@H](Cc1ccnnc1)C(=O)O: > 46 µM (inactive)
- Cn1c(N)c(N=Nc2ccc(S(N)(=O)=O)cc2)c(=O)n(C)c1=O: > 46 µM (inactive)
- NS(=O)(=O)c1cc(C(=O)O)c(O)c2ccccc12: > 46 µM (inactive)
- [O-][N+]1(CC[N+]2([O-])CCCCC2)CCCCC1: > 46 µM (inactive)
- CC(C)(N)C(=O)N[C@@H]1C(=O)N2[C@@H]1SC(C)(C)[C@H]2C(=O)O: > 46 µM (inactive)
- CC[C@H](C)C(=O)O[C@@H]1CCC=C2C=C[C@H](C)[C@@H](CC[C@H]3C[C@@H](O)CC(=O)O3)[C@H]21: > 46 µM (inactive)

query: What value of Potency has been reported for the following compound? Cc1cc(Cl)ccc1OCC(=O)Nc1nc(N)nc(N)n1
result: > 46 µM (inactive)

query: Follow-up entry: Nc1ncnc2c1ncn2[C@H]1O[C@@H](C(=O)OCCO)[C@@H](O)[C@H]1O
result: > 46 µM (inactive)

query: Another compound to look at: O=C(O)c1cc2ccccc2c(S(=O)(=O)O)c1O
result: > 46 µM (inactive)

query: // query: Cc1ccc(N[C@H](c2ccccc2)c2ccc3cccnc3c2O)cc1
result: > 46 µM (inactive)

====

assayed.target: Cytochrome P450 1A2 (Homo sapiens)
method.description: p450-cyp1a2 (AID 410)
stated.conditions: recombinant CYP1A2, luciferin-ME demethylation, luminescence; series mostly up to 11.4 µM
Records with an inconclusive call do not appear. Calls of active or inactive are those of the source. Calls follow the shape of the full dose curve.
Respond only with the outcome that fits, drawn from true (1) = active, false (0) = inactive

// below: answered compounds
- Cc1cccc(C)c1OC[C@@H](N)C(C)C: true (1)
- O=C(O)c1ccc(CNCc2ccccc2)cc1: false (0)
- CC(C)(C)c1ccc(O)c(CN(Cc2c(O)ccc3ccccc23)C2CCCCC2)c1: true (1)
- C#C[C@@]1(O)CC[C@H]2[C@H]3CCC4=Cc5oncc5C[C@]4(C)[C@@H]3CC[C@@]21C: true (1)
- C[C@H]1[C@H](O)[C@@H](C)C=CC=CC=CC=CC=CC=CC=C[C@H](O[C@@H]2O[C@@H](C)[C@H](O)[C@@H](N)[C@@H]2O)C[C@@H]2O[C@](O)(C[C@@H](O)C[C@@H](O)[C@@H](O)CC[C@@H](O)C[C@@H](O)CC(=O)O[C@H]1C)C[C@H](O)[C@H]2C(=O)O: false (0)
- O=C1[C@@H]2[C@@H](C(=O)N1c1ccc(OCc3ccccc3)cc1)[C@@H]1c3ccccc3[C@@H]2[n+]2ccccc21: false (0)
- C[N+]1(CCC(=O)c2ccco2)CC2CCC(CC2)C1 (stereo not drawn): false (0)
- Cc1nc2cnc(N3CCOCC3)nc2n(Cc2cccs2)c1=O: true (1)
- Cc1cc2nc3[nH]c4c(Cl)cc(Cl)cc4c3nc2cc1C: true (1)
- Oc1ccc2ccccc2c1/C=C\c1ccc2c(Br)cc(Br)c(O)c2n1: true (1)

query: Identify the outcome logged in this assay for the compound shown: CC(C)[C@H]1C(=O)C(C(N)=O)=C(O)[C@]2(O)C(=O)C3=C(O)c4c(O)ccc(N(C)C)c4C[C@H]3C[C@@H]12
result: false (0)

query: Also O[C@]1(c2ccccc2)c2ccccc2NC2=NCCN21 ?
result: false (0)

query: And the next one, CN1CCN(c2ncc3nc(-c4cccs4)c(=O)n(C[C@H]4CCCO4)c3n2)CC1 ?
result: true (1)

query: Repeat for the following compound: NNC(=O)CCc1ccc2ccc3ccccc3c2c1
result: true (1)

query: Same read-out for O=C(O)c1ccc(C(=O)c2ccccc2C(=O)O)cc1C(=O)O ?
result: false (0)
